Biological target: Tyrosine-protein phosphatase non-receptor type 6 (Homo sapiens)
Sequence (P29350 whole entry): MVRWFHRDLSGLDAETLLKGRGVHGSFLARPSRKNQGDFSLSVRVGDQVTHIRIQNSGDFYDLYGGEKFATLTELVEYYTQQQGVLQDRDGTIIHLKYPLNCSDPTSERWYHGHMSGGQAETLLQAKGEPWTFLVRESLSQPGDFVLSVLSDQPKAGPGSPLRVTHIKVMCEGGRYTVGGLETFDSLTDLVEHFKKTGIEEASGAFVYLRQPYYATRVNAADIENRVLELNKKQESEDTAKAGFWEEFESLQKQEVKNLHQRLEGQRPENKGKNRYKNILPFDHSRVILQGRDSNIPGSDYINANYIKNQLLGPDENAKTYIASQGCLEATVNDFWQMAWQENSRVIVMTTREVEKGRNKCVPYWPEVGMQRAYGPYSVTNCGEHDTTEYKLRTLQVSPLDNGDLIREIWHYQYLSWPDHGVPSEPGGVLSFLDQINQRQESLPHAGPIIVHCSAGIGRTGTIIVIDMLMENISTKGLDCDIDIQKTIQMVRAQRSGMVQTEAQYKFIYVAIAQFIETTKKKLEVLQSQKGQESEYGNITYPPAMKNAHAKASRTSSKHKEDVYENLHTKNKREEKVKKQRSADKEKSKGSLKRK
Assay: Inhibition of SHP1 (unknown origin)
pIC50: −log10 of the molar value.
quantity: pIC50

>>> assay_value("O=C(CCn1cnc2sc3c(c2c1=O)CCCCC3)Nc1ccccc1[N+](=O)[O-]")
"< 4.00"

====

Target: Tyrosine-protein phosphatase non-receptor type 11 (Homo sapiens, UniProt Q06124)
Sequence (Q06124 whole entry, the tested form may be a part): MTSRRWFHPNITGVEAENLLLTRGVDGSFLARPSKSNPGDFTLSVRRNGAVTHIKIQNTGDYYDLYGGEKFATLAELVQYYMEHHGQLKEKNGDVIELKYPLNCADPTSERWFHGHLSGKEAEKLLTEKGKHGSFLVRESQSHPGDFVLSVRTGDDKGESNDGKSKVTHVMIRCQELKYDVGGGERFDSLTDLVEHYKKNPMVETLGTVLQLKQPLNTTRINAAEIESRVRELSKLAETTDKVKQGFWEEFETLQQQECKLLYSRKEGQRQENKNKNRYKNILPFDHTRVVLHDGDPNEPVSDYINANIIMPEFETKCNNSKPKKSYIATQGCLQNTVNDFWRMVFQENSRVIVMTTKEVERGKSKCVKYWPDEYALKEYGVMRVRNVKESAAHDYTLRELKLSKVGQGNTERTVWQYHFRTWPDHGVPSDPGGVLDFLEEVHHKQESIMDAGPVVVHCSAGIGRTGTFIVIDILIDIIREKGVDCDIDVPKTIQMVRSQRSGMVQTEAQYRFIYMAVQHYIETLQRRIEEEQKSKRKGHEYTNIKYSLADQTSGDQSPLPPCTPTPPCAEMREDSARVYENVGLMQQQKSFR
Assay: Inhibition of GST fused SHP2 PTP domain (unknown origin) using Thr-Arg-Asp-Ile-Tyr[PO3H2]-Glu-Thr-Asp-Tyr-Tyr as substrate incubated for 30 mins by malachite green staining based analysis
pIC50: −log10 of the molar value.
quantity: pIC50

>>> assay_value("Cc1cc(C)c2c(c1)[nH]c1nnc(SCC(=O)NCc3cccs3)nc12")
4.86
